- Test system: wheat germ agglutinin (Triticum aestivum), Alexa647-labelled
- method summary: Alexa647-WGA lectin binding to printed small molecules – biochemical, small-molecule microarray, 635/667 nm fluorescence, artefact control for SMM control-protein annotation, profiling panel (AID 1140);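 further: score merges 667 nm feature emission with signal to noise over triplicate slides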
- measurement setup: WGA-A647 binding, 635 nm fluorescence, higher = more signal
Label Condition met when composite z-score is at or above 0.7; otherwise label Condition not met.

# count of solved cases: 3
INSERT INTO assay_data (molecule, target, classification) VALUES
  ('CC[C@@H]1C=C(C(=O)O)[C@H](c2ccc(C)cc2)N1S(=O)(=O)c1ccc(C)cc1', 'wheat germ agglutinin (Triticum aestivum), Alexa647-labelled', 'Condition not met'),
  ('CCCNC(=O)[C@@]1(Sc2ccc(C)cc2)CC(=O)N(Cc2ccccc2C(F)(F)F)[C@@H]1c1ccc(CO)cc1I', 'wheat germ agglutinin (Triticum aestivum), Alexa647-labelled', 'Condition not met'),
  ('O=C1O[C@@H](c2ccccc2)[C@@H](c2ccccc2)N2[C@@H](c3ccccc3OCCO)[C@]3(C(=O)Nc4ccccc43)[C@@H](C(=O)O)[C@H]12', 'wheat germ agglutinin (Triticum aestivum), Alexa647-labelled', 'Condition not met');

Kindly determine if composite z-score recorded for C=C(CCCC)/C(=C/C[C@@H](OC(C)=O)c1cccc(OCCO)c1)c1cnc2ccccc2c1 is above or exactly 0.7.
Condition met

Kindly determine if composite z-score recorded for COC(=O)[C@@]1(Cc2ccc(OC)cc2)[C@H]2c3cc(C(=O)N4CCCC4)n(Cc4nc5ccccc5[nH]4)c3C[C@H]2CN1C(=O)c1ccccc1 is above or exactly 0.7.
Condition met

Kindly determine if composite z-score recorded for C=CCC(OC(C)=O)[C@@H]1[C@@H](N(Cc2ccc(-c3cccc(C(F)(F)F)c3)o2)C(=O)Cc2ccc(OC)cc2)c2cc(OCCCO)ccc2N1C(=O)c1ccc2ccccc2c1 (stereo not given in full) is above or exactly 0.7.
Condition not met

###

- method summary: hepatitis C replication reporter changes, two-sided – Huh7 cells, luciferase reporter, HCV replication inhibitor project, primary screen (AID 1109);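 further: huh7 hepatoma cells harbouring a luciferase neomycin HCV replicon reporter; luciferase luminescence as measure of HCV replicon replication; test concentration not given here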
- measurement setup: Huh7 HCV replicon luciferase reporter, 48 h; higher = more signal
experimental readout: z-score
Give your answer as a number; write no unit.

Before answering, review these 3 worked examples.
INSERT INTO assay_data (compound, number) VALUES
  ('CCN(CC)c1ccc(N2CC=CC34O[C@@H]5/C=C\CCC(C)OC(=O)C5[C@H]3C(=O)N(CCCCCO)[C@@H]4C2=O)cc1 (some centres undefined)', 0.008),
  ('COCCCNC(=O)[C@@H]1c2ccccc2C(=O)N(Cc2ccccc2)[C@H]1c1ccc(CO)cc1', -0.719),
  ('COc1ccc([Si](C)(C)[C@H]2[C@H](CCO)O[C@@]3(C(=O)N(Cc4ccccc4)c4ccc(N5CCCCC5=O)cc43)[C@@H]2C)cc1', -5.03);

Please look at the following compound next.
Identify the reported z-score for the following entry. COc1cc2c(cc1O)C=[N+](Cc1cc3c(cc1Br)OCO3)CC2
-0.537

###

- target: Dickkopf-related protein 1 (Homo sapiens)
- method summary: small molecules binding DKK1 protein – biochemical, small-molecule microarray, 635 nm fluorescence scan, primary screen (AID 1106);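 further: score merges emission near 667 nm with signal to noise over three replicate slides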
- measurement setup: higher = more signal
Label 1 when composite z-score is at or above 0.0003; otherwise label 0.

# count of solved cases: 2
INSERT INTO assay_data (compound, target, classification) VALUES
  ('COc1ccc(C#Cc2ccc3c(c2)[C@]2(C(=O)N3)[C@H](c3ccc(O)cc3)N3[C@H](c4ccccc4)[C@H](c4ccccc4)OC(=O)[C@H]3[C@@H]2C(=O)N2CCc3cc(OC)c(OC)cc3C2)cc1', 'Dickkopf-related protein 1 (Homo sapiens)', 1),
  ('C=CC[C@]1(C(N)=O)N=C(c2ccc(OCCCO)cc2)O[C@H]1c1ccccc1', 'Dickkopf-related protein 1 (Homo sapiens)', 0);

Next:
Kindly determine if composite z-score recorded for O=C1C2C=CC(C(O)c3ccc(F)cc3)N(Nc3ccc([N+](=O)[O-])cc3)C2C(=O)N1c1ccccc1 (stereo not given) is above or exactly 0.0003.
0

###

- method summary: probe aLefty2 binding to arrayed compounds – biochemical, biotinylated probe, 635/667 nm fluorescence, primary screen (AID 1094);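 further: score merges spot fluorescence near 667 nm with spot signal-to-noise ratio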
- measurement setup: small-molecule microarray, higher = more signal
// map composite z-score onto a label; ranges low (below -0.08), medium (-0.08 to below -0.01), high (-0.01 or more)

# count of solved cases: 3
INSERT INTO assay_data (molecule, classification) VALUES
  ('C=C(CCCC)/C(=C/C[C@@H](OC(C)=O)c1ccccc1OCCO)c1cc(C(=O)OC)ccc1OC', 'low'),
  ('CCCCC(=C=CC[C@@H](O)c1ccc(CO)o1)CCO', 'low'),
  ('COc1ccc(C(O)C2C=CC3C(=O)N(C)C(=O)C3N2NC(=O)OC(C)(C)C)c2ccccc12 (stereo unspecified)', 'high');

Next:
Hi, small favor: classify COc1ccc([C@H]2OC[C@@H]3CCC(=O)N32)cc1 by its composite z-score when you get a moment.
medium

###

- Test system: Wnt5a (protein binding on small-molecule microarray)
- method summary: small molecules binding Wnt5a protein – biophysical, small-molecule microarray, 635/667 nm fluorescence, primary screen (AID 1142);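 further: fluorescence read at 667 nm with signal to noise per printed feature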
- measurement setup: 635 nm fluorescence, higher = more signal
Entries annotated with measured composite z-score
Give your answer as a number; write no unit.

Before answering, review these 6 worked examples.
INSERT INTO assay_data (smiles_string, experimental_readout, number) VALUES
  ('COC(=O)[C@@]1(Cc2ccc(OC)cc2)[C@H]2c3cc(C(=O)N4CCCC4)n(CCSCCO)c3C[C@H]2CN1C(=O)c1ccccc1', 'composite z-score', 0.631),
  ('O=C(CS)NCCCCCNC(=O)[C@H]1C[C@H]2C(=O)NCC(=O)N2[C@H]1c1ccc(O)cc1', 'composite z-score', -0.55),
  ('Cc1ccc(S[C@]2(C(=O)O)CC(=O)N(C(C)C)[C@@H]2c2ccc(CO)cc2)cc1', 'composite z-score', -0.201),
  ('CO[C@H]1O[C@H](CO)[C@@H](OC(=O)Nc2cccc(F)c2)[C@H](OC(=O)Nc2ccccc2)[C@H]1OC(=O)Nc1ccccc1', 'composite z-score', 0.701),
  ('COc1cc2c(cc1OC)CN(C(=O)[C@H]1[C@@H]3C(=O)O[C@@H](c4ccccc4)[C@@H](c4ccccc4)N3[C@@H](c3ccccc3OCCO)[C@]13C(=O)Nc1ccc(C#CCCO)cc13)CC2', 'composite z-score', 0.703),
  ('C[N+](C)(C)CCCC[C@@H]1NC(=O)[C@@H]2C[C@H](C(=O)NCCCCCCNC(=O)CS)[C@H](c3ccc(O)cc3)N2C1=O', 'composite z-score', -0.387);

Please look at the following molecule next.
Name the recorded composite z-score of COC(=O)c1c2oc(c1C(=O)OC)C(=O)N[C@@H](C(C)C)Cn1cc(nn1)C1(CCCCC1)NC(=O)N[C@H](CO)CC2 , assay system Wnt5a (protein binding on small-molecule microarray).
0.432

###

- target: Streptavidin (Streptomyces avidinii)
- method summary: compounds binding control protein streptavidin – biophysical, small-molecule microarray, 635/667 nm fluorescence, artefact control for SMM compound annotation, primary screen (AID 1147);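 further: signal reflects streptavidin binding to arrayed compounds as a control protein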
- measurement setup: higher = more signal
Entries annotated with measured composite z-score
Give your answer as a number; write no unit.

INSERT INTO assay_data (compound, experimental_readout, number) VALUES
  ('C[N+](C)(C)CCCC[C@@H]1NC(=O)[C@H]2C[C@@H](C(=O)NCCCCCCNC(=O)CS)[C@@H](c3ccc(O)cc3)N2C1=O', 'composite z-score', -1.48),
  ('CCOc1ccc(N2C(=O)CSC2c2cccc([N+](=O)[O-])c2)cc1 (stereo not drawn)', 'composite z-score', 0.804),
  ('COc1ccc(C(O)C2C=CC3C(=O)N(C)C(=O)C3N2N(c2ccccc2)c2ccccc2)c2ccccc12 (stereo not drawn)', 'composite z-score', 0.797),
  ('C[N+](C)(C)CCCC[C@@H]1NC(=O)[C@@H]2C[C@H](C(=O)NCCCCCN)[C@H](c3ccc(O)cc3)N2C1=O', 'composite z-score', 1.49),
  ('[N-]=[N+]=Nc1ccccc1C[C@@]1(C(=O)N2CCCCC2)N=C(c2ccc(OCCCO)cc2)O[C@@H]1c1ccccc1', 'composite z-score', 1.23);

Identify the reported composite z-score for the following entry. NCCCCCCNC(=O)[C@H]1C[C@H]2C(=O)N[C@@H](Cc3ccccc3)C(=O)N2[C@H]1c1cccc(OCCO)c1
1.09

Identify the reported composite z-score for the following entry. NC(=O)[C@@]1(Cc2ccccc2)N=C(c2ccc(OCCCO)cc2)O[C@H]1c1ccccc1
0.924

Identify the reported composite z-score for the following entry. COC(=O)[C@@]1(Cc2ccc(F)cc2)[C@H]2c3cc(C(=O)N(C)C)n(Cc4ccc(C)o4)c3C[C@H]2CN1C(=O)c1ccccc1
-0.649
